Tested on: YT (IL-2 2.5 ng/mL)
assay-notes: percent inhibition of viability; higher = more inhibition;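 note: normalised to DMSO-only wells as negative and benzethonium chloride as positive control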
condition-info: 72 h; 10000 nM
Please go through the items and note down their percent inhibition of viability.
One number for each entry, in %.

The examples below pair each entry with its known result.
Ask: Assign percent inhibition of viability to the following record: O=c1[nH]cc(F)c(=O)[nH]1 [Fluorouracil] (max concentration tested 10000 nM)
Result: 64

Ask: Assign percent inhibition of viability to the following record: N#Cc1ccc(C(c2ccc(C#N)cc2)n2cncn2)cc1 [Letrozole] (max concentration tested 10000 nM)
Result: 30.5

Each compound below has a recorded value; state its percent inhibition of viability.
1. Nc1cc(C(F)(F)F)c(-c2cc(N3CCOCC3)nc(N3CCOCC3)n2)cn1 [Buparlisib] (max concentration tested 10000 nM)
2. CS(=O)(=O)OCCCCOS(C)(=O)=O [Busulfan] (max concentration tested 100000 nM)
3. Nc1ccccc1NC(=O)c1ccc(CNC(=O)OCc2cccnc2)cc1 [Entinostat] (max concentration tested 10000 nM)
4. C[C@@]1(C(=O)Nc2ccc(F)nc2)CCCN1c1nc(Nc2cc(C3CC3)n[nH]2)c2cccn2n1 (max concentration tested 10000 nM)
5. CCCS(=O)(=O)Nc1ccc(F)c(C(=O)c2c[nH]c3ncc(-c4ccc(Cl)cc4)cc23)c1F [Vemurafenib] (max concentration tested 10000 nM)

Result:
100
-4.04
93.3
51.8
98.7
